The next entries give measured pIC50 for acyl-coenzyme A:cholesterol acyltransferase (ACAT) (Oryctolagus cuniculus).
Numbers only, as −log10 of the molar value.

Example compounds with recorded pIC50:
CCCCCCCCCCCc1cc(NC(=O)Nc2c(C(C)C)cccc2C(C)C)no1 [Example 15] | 7.57
CCCCN(CCCC)Cc1cc(NC(=O)Nc2c(C(C)C)cccc2C(C)C)n(Cc2ccccc2)n1 [Example 22] | 5.72
CCCCCCCCCCCn1nccc1NC(=O)Nc1c(C(C)C)cccc1C(C)C [Example 23] | 7.46
CCCCN(CCCC)Cc1cc(NC(=O)Nc2c(C(C)C)cccc2C(C)C)no1 [Example 19] | 6.29
CCCCCCCCCCCc1cc(NC(=O)Nc2c(C(C)C)cccc2C(C)C)on1 [Example 11] | 7.70
CCCCCCCCCCCCc1cc(NC(=O)Nc2c(C(C)C)cccc2C(C)C)no1 [Example 9] | 7.57

CCCCCCCCCCCCCCc1cc(NC(=O)Nc2c(C(C)C)cccc2C(C)C)no1 [Example 17] has a reported pIC50 of 6.96

---

Experiment: APCC in vivo screen: blood cholesterol in cholesterol-fed rats
Design: species or system male Sprague-Dawley rats
Conditions: Rattus norvegicus, 192 h; 3 mg/kg, oral; chow diet with peanut oil 5.5%, cholesterol 1.5%, cholic acid 0.5%; blood sampled next day 8 AM; read-out: % Change (mg/dl)
The threshold is -30%. Values of change in vivo at 3 mg/kg beneath it are tagged Satisfied; values meeting or exceeding it are tagged Not satisfied.

These solved cases illustrate the format of a correct answer.
CCCCCCCCCCc1cc(NC(=O)Nc2c(C(C)C)cccc2C(C)C)on1 [Example 10] | Satisfied
CCCCCCCCCCCc1cc(NC(=O)Nc2c(C(C)C)cccc2C(C)C)no1 [Example 15] | Satisfied
CCCCN(CCCC)Cc1cc(NC(=O)Nc2c(C(C)C)cccc2C(C)C)no1 [Example 19] | Satisfied
CCCCCCCCCCc1cc(NC(=O)Nc2c(C(C)C)cccc2C(C)C)no1 [Example 14] | Not satisfied

Now let's try a different one.
Ask: Bench note: check whether CCCCCCCCCCCn1nccc1NC(=O)Nc1c(C(C)C)cccc1C(C)C [Example 23] shows change in vivo at 3 mg/kg below -30%
Result: Not satisfied
